- method.description: Solubility in water at pH 5.7 under nitrogen and sheltered from light condition incubated for 1 hr
- Type: physicochemical
quantity.kind: solubility at 1 h (mg/mL)
Express it in mg/mL; write the number only.

### Prompt For the molecule O=C(O)C1CCCN1Cc1c(O)c(CN2CCCC2C(=O)O)c2c(c1O)C(=O)[C@@H](O)[C@H](c1ccc(O)c(O)c1)O2 (some centres not stated) , what solubility at 1 h is on record?
### Response 19.5

Now examine the next entry.
### Prompt For the molecule O=C1c2c(O)cc(O)cc2O[C@H](c2ccc(O)c(O)c2)[C@H]1O [(+)-TAXIFOLIN] , what solubility at 1 h is on record?
### Response 1.2

----------
- method.description: Thermal stability of the compound assessed as drug degradation by measuring compound weight loss at 30 to 100 degC
- Assay type: physicochemical
- experimental.context: read-out: Drug degradation
quantity.kind: degraded (%)
Express it in %; write the number only.

### Prompt For the compound O=C1c2c(O)cc(O)cc2O[C@H](c2ccc(O)c(O)c2)[C@H]1O [(+)-TAXIFOLIN] , what degraded is on record?
### Response 10.1

----------
- method.description: Thermal stability of the compound assessed as drug degradation by measuring compound weight loss at 247 to 600 degC
- Format: physicochemical
- experimental.context: read-out: Drug degradation
quantity.kind: degraded (%)
Express it in %; write the number only.

### Prompt For the molecule O=C1c2c(O)cc(O)cc2O[C@H](c2ccc(O)c(O)c2)[C@H]1O [(+)-TAXIFOLIN] , what degraded is on record?
### Response 43.4

----------
- method.description: Thermal stability of the compound assessed as drug degradation by measuring compound weight loss at 217 to 600 degC
- Type: physicochemical
- experimental.context: read-out: Drug degradation
quantity.kind: degraded (%)
Express it in %; write the number only.

### Prompt For the compound O=C(O)C1CCCN1Cc1c(O)c(CN2CCCC2C(=O)O)c2c(c1O)C(=O)[C@@H](O)[C@H](c1ccc(O)c(O)c1)O2 (stereo partly specified) , what degraded is on record?
### Response 64.8

----------
- method.description: Safety index, ratio of EC50 for aristolochic acid to EC50 for test compound for cytotoxicity in HEK293 cells assessed as reduction in cell survival incubated for 48 hrs by MTT assay
- Assay type: cell-based
- experimental.context: human, read-out: Ratio EC50
quantity.kind: selectivity ratio at 48 h

### Prompt For the compound O=C(O)C1CCCN1Cc1c(O)c(CN2CCCC2C(=O)O)c2c(c1O)C(=O)[C@@H](O)[C@H](c1ccc(O)c(O)c1)O2 (some centres not stated) , what selectivity ratio at 48 h is on record?
### Response 7

Now examine the next entry.
### Prompt For the compound O=C1c2c(O)cc(O)cc2O[C@H](c2ccc(O)c(O)c2)[C@H]1O [(+)-TAXIFOLIN] , what selectivity ratio at 48 h is on record?
### Response 5.6
